I'd appreciate it if you could supply Hematocrit values for the items below.
- System: intestinal ulcers and hematocrit in male Wistar rats
- Protocol description: Ulcerogenic activity
- Format: in vivo, rat
- Experimental context: dose 100 mg/kg oral once a day for 4 days

Cc1cc(=O)c(Oc2ccc(Cl)cc2)c(-c2ccc(S(C)(=O)=O)cc2)o1
43.4 ± 1.9%
Cc1cc(=O)c(Oc2ccc(F)cc2)c(-c2ccc(S(C)(=O)=O)cc2)o1
43.7 ± 0.4%
Cc1cc(=O)c(Oc2ccc(F)cc2F)c(-c2ccc(S(C)(=O)=O)cc2)o1
44.4 ± 0.9%
Cc1cc(=O)c(-c2ccc(Cl)c(Cl)c2)c(-c2ccc(S(C)(=O)=O)cc2)o1
44.4 ± 0.3%

API: the following record is the query input.
What Hematocrit value was documented for this compound, `Cc1cc(=O)c(-c2ccc(Cl)cc2)c(-c2ccc(S(C)(=O)=O)cc2)o1` ?
44.1 ± 0.7%

* * *

I'd appreciate it if you could supply Ratio COX-1/COX-2 values for the items below.
- Tested system: COX-2 (Homo sapiens, UniProt P35354)
- Construct: incubated in the presence of LPS (10 μg/ml) for 24 h at 37° C. in order to induce The COX-2 expression; endogenous in cells; host or cells: fresh heparinized human whole blood, COX-2 induced with LPS for 24 h
- Sequence (P35354 18-604): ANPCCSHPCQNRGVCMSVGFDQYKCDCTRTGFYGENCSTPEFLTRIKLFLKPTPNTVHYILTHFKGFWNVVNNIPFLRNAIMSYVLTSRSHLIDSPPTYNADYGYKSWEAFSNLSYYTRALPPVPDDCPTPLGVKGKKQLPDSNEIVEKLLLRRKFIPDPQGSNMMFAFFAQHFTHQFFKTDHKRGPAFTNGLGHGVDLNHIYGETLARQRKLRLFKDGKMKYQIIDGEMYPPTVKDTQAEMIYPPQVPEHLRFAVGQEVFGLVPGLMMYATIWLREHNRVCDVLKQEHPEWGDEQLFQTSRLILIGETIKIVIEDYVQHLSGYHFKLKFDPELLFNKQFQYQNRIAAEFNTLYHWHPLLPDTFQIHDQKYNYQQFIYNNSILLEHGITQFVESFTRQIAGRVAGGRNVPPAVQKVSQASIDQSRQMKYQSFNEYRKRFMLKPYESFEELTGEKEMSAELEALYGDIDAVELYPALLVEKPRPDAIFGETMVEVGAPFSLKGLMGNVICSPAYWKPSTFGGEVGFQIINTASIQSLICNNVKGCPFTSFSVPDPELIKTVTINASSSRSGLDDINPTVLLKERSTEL
- Protocol description: COX-2 activity in human whole blood (PGE2, LPS-induced)
- Assay type: cell-based
- Experimental context: ratio of whole blood IC50 values
Answers are plain numbers.

Solved entries (count: 3):
Cc1cc(=O)c(-c2ccc(F)cc2F)c(-c2ccc(S(C)(=O)=O)cc2)o1 [Compound 15]
90
Cc1cc(=O)c(Oc2cc(F)ccc2F)c(-c2ccc(S(C)(=O)=O)cc2)o1 [Compound 47]
71
COCc1cc(=O)c(-c2ccc(Cl)cc2)c(-c2ccc(S(C)(=O)=O)cc2)o1 [Compound 63]
25

What Ratio COX-1/COX-2 value was documented for this compound, Cc1cc(=O)c(Oc2ccccc2Cl)c(-c2ccc(S(C)(=O)=O)cc2)o1 [Compound 42] ?
205

* * *

I'd appreciate it if you could supply Ratio COX-1/COX-2 values for the items below.
- Tested system: COX-2 (Homo sapiens)
- Construct: incubated in the presence of LPS (10 μg/ml) for 24 h at 37° C. in order to induce The COX-2 expression; endogenous in cells; host or cells: fresh heparinized human whole blood, COX-2 induced with LPS for 24 h
- Protocol description: COX-2 activity in human whole blood (PGE2, LPS-induced)
- Assay type: cell-based
- Experimental context: ratio of whole blood IC50 values
Answers are plain numbers.

Cc1cc(=O)c(Oc2ccc(Br)cc2)c(-c2ccc(S(C)(=O)=O)cc2)o1 [Compound 43]
125

What Ratio COX-1/COX-2 value was documented for this compound, Cc1cc(=O)c(Oc2ccccc2F)c(-c2ccc(S(C)(=O)=O)cc2)o1 [Compound 40] ?
193

* * *

- Tested system: COX-2 (Homo sapiens, UniProt P35354)
- Construct: incubated in the presence of LPS (10 μg/ml) for 24 h at 37° C. in order to induce The COX-2 expression; endogenous in cells
- Protocol description: COX-2 activity in human whole blood (PGE2, LPS-induced)
- Experimental context: human whole blood, LPS 10 μg/ml 24 h at 37° C., PGE2 ELISA
I'd appreciate it if you could supply IC50 values for the items below.
Give the figure together with its unit, number first.

Cc1cc(=O)c(Oc2ccccc2Cl)c(-c2ccc(S(C)(=O)=O)cc2)o1 [Compound 42]
0.2 µM
Cc1cc(=O)c(-c2ccc(F)cc2F)c(-c2ccc(S(C)(=O)=O)cc2)o1 [Compound 15]
1.1 µM
Cc1cc(=O)c(Cc2ccccc2)c(-c2ccc(S(C)(=O)=O)cc2)o1 [Compound 37]
1.08 µM

Lab note: each molecule below needs its IC50 filled in.
1. Cc1cc(=O)c(Oc2cc(F)ccc2F)c(-c2ccc(S(C)(=O)=O)cc2)o1 [Compound 47]
2. Cc1cc(=O)c(Oc2ccc(F)cc2F)c(-c2ccc(S(C)(=O)=O)cc2)o1 [Compound 45]
3. Cc1cc(=O)c(-c2ccccc2F)c(-c2ccc(S(C)(=O)=O)cc2)o1 [Compound 4]
4. Cc1cc(=O)c(Oc2ccc(Br)cc2)c(-c2ccc(S(C)(=O)=O)cc2)o1 [Compound 43]
5. Cc1cc(=O)c(Oc2ccc(Cl)cc2)c(-c2ccc(S(C)(=O)=O)cc2)o1 [Compound 41]

1: 0.8 µM; 2: 0.15 µM; 3: 1.5 µM; 4: 0.8 µM; 5: 0.35 µM

* * *

I'd appreciate it if you could supply IC50 values for the items below.
- Tested system: COX-2 (Homo sapiens)
- Construct: incubated in the presence of LPS (10 μg/ml) for 24 h at 37° C. in order to induce The COX-2 expression; endogenous in cells
- Protocol description: COX-2 activity in human whole blood (PGE2, LPS-induced)
- Experimental context: human whole blood, LPS 10 μg/ml 24 h at 37° C., PGE2 ELISA
Numbers only, in µM.

Solved entries (count: 3):
Cc1cc(=O)c(-c2ccc(Cl)cc2)c(-c2ccc(S(C)(=O)=O)cc2)o1
2.1
Cc1cc(=O)c(-c2ccc(Br)cc2)c(-c2ccc(S(C)(=O)=O)cc2)o1
1.7
Cc1cc(=O)c(-c2ccc(F)cc2)c(-c2ccc(S(C)(=O)=O)cc2)o1
1.06

API: the following record is the query input.
What IC50 value was documented for this compound, `Cc1cc(=O)c(Oc2ccc(F)cc2)c(-c2ccc(S(C)(=O)=O)cc2)o1` ?
0.96

* * *

I'd appreciate it if you could supply pIC50 values for the items below.
- Tested system: COX-1 (Homo sapiens)
- Construct: Fresh blood from healthy volunteers; endogenous in cells
- Sequence (P23219 24-599): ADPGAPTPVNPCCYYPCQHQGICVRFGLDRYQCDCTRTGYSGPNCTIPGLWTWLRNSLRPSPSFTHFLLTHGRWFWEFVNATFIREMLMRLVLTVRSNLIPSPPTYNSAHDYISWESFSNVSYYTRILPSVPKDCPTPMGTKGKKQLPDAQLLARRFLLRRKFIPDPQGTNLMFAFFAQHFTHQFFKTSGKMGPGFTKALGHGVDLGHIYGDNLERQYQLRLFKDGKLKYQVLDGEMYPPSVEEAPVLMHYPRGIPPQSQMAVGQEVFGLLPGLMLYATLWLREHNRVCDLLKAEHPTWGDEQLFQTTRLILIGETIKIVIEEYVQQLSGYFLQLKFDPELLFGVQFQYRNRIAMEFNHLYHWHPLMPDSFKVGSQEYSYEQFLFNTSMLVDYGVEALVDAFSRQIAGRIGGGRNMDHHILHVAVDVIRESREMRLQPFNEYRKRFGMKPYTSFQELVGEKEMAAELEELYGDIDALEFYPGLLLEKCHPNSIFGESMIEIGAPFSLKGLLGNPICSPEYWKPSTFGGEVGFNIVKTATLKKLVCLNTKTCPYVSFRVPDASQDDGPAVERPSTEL
- Protocol description: COX-1 activity in human whole blood (TXB2, calcium ionophore A23187)
- Experimental context: 1 h at 37° C., TXB2 ELISA
Numbers only, as −log10 of the molar value.

Solved entries (count: 6):
Cc1cc(=O)c(Oc2cc(F)ccc2F)c(-c2ccc(S(C)(=O)=O)cc2)o1 [Compound 47]
4.24
Cc1cc(=O)c(Oc2ccc(F)cc2F)c(-c2ccc(S(C)(=O)=O)cc2)o1 [Compound 45]
4.66
COCc1cc(=O)c(-c2ccc(Cl)cc2)c(-c2ccc(S(C)(=O)=O)cc2)o1 [Compound 63]
4.36
Cc1ccc(Oc2c(-c3ccc(S(C)(=O)=O)cc3)oc(C)cc2=O)cc1 [Compound 44]
4.41
Cc1cc(=O)c(Oc2ccccc2F)c(-c2ccc(S(C)(=O)=O)cc2)o1 [Compound 40]
4.57
Cc1cc(=O)c(Oc2ccccc2Cl)c(-c2ccc(S(C)(=O)=O)cc2)o1 [Compound 42]
4.39

API: the following record is the query input.
What pIC50 value was documented for this compound, Cc1cc(=O)c(-c2ccc(Cl)c(Cl)c2)c(-c2ccc(S(C)(=O)=O)cc2)o1 [Compound 22] ?
4.43

* * *

- Tested system: COX-2 (Homo sapiens, UniProt P35354)
- Construct: incubated in the presence of LPS (10 μg/ml) for 24 h at 37° C. in order to induce The COX-2 expression; endogenous in cells
- Protocol description: COX-2 activity in human whole blood (PGE2, LPS-induced)
- Experimental context: human whole blood, LPS 10 μg/ml 24 h at 37° C., PGE2 ELISA
Measured endpoint: IC50 (nM)
Give bare numbers, in nM.

COc1ccc(-c2c(-c3ccc(S(C)(=O)=O)cc3)oc(C)cc2=O)cc1Cl
1670
CS(=O)(=O)c1ccc(-c2oc(C(F)F)cc(=O)c2-c2ccc(Cl)cc2)cc1
2100
COCc1cc(=O)c(-c2ccc(Cl)cc2)c(-c2ccc(S(C)(=O)=O)cc2)o1
1730

API: the following record is the query input.
What IC50 value was documented for this compound, `Cc1cc(=O)c(Oc2ccccc2F)c(-c2ccc(S(C)(=O)=O)cc2)o1` ?
140

* * *

- Tested system: COX-2 (Homo sapiens)
- Construct: incubated in the presence of LPS (10 μg/ml) for 24 h at 37° C. in order to induce The COX-2 expression; endogenous in cells; host or cells: fresh heparinized human whole blood, COX-2 induced with LPS for 24 h
- Protocol description: COX-2 activity in human whole blood (PGE2, LPS-induced)
- Type: cell-based
- Experimental context: ratio of whole blood IC50 values
Measured endpoint: Ratio COX-1/COX-2

Solved entries (count: 3):
Cc1cc(=O)c(-c2ccc(Br)cc2)c(-c2ccc(S(C)(=O)=O)cc2)o1
>58
Cc1cc(=O)c(Oc2ccc(F)cc2F)c(-c2ccc(S(C)(=O)=O)cc2)o1
147
Cc1cc(=O)c(-c2ccc(F)cc2)c(-c2ccc(S(C)(=O)=O)cc2)o1
>94

API: the following record is the query input.
API: value(readout= Ratio COX-1/COX-2, system= COX-2 (Homo sapiens), query= `Cc1cc(=O)c(Oc2ccc(F)cc2)c(-c2ccc(S(C)(=O)=O)cc2)o1` )
>104
